Tested on: U2OS
Test: Incucyte cell viability with U2OS; also: unitless GR value; below 1 slowed growth and below 0 cell loss
Format: toxicity, cell-based
Details: human, 0 h, 10 µM, compound concentration 10 uM, replicate number 2
Doc: threshold 0.5 (exclusive). Items with Growth Rate beneath it return fulfilled; others return not fulfilled.

**Query** Determine whether this compound shows Growth Rate lower than 0.5 (ties excluded): `CN1C(=O)c2ccccc2N(C)c2nc(Nc3cnn(C4CCNCC4)c3)ncc21`
**Result** fulfilled

**Query** Determine whether this compound shows Growth Rate lower than 0.5 (ties excluded): `CCN1C(=O)N(c2c(F)c(OC)cc(OC)c2F)Cc2cnc3[nH]c(CN4CCOCC4)cc3c21`
**Result** fulfilled

**Query** Determine whether this compound shows Growth Rate lower than 0.5 (ties excluded): `O=C(Nc1ccc(OC(F)(F)Cl)cc1)c1cnc(N2CC[C@@H](O)C2)c(-c2ccn[nH]2)c1`
**Result** fulfilled

**Query** Determine whether this compound shows Growth Rate lower than 0.5 (ties excluded): `COC[C@@H](C)N[C@H]1CC[C@H](Nc2cc(-c3cccc(NCC4(C#N)CCOCC4)n3)c(Cl)cn2)CC1`
**Result** not fulfilled

**Query** Determine whether this compound shows Growth Rate lower than 0.5 (ties excluded): `c1ccc2c(-c3coc4cc(-c5ccc(N6CCNCC6)cc5)cnc34)ccnc2c1`
**Result** not fulfilled

**Query** Determine whether this compound shows Growth Rate lower than 0.5 (ties excluded): `NC(=O)c1cc2c(-c3ccc(C(=O)NCc4ccnc(Cl)c4)s3)cccc2s1`
**Result** fulfilled

**Query** Determine whether this compound shows Growth Rate lower than 0.5 (ties excluded): `Nc1ccc(-c2cnc(N)c(-c3ccc(Cl)cc3)c2)cn1`
**Result** fulfilled

**Query** Determine whether this compound shows Growth Rate lower than 0.5 (ties excluded): `COc1cc(C(=O)NCCOCCOCCOCC(=O)N[C@H](C(=O)N2C[C@H](O)C[C@H]2C(=O)NCc2ccc(-c3scnc3C)cc2)C(C)(C)C)ccc1Nc1ncc(C(F)(F)F)c(Oc2cccc3c2C(=O)CC3)n1`
**Result** not fulfilled

**Query** Determine whether this compound shows Growth Rate lower than 0.5 (ties excluded): `COc1ccc(-n2nc3c4ccccc4[nH]cc-3c2=O)cc1`
**Result** fulfilled

**Query** Determine whether this compound shows Growth Rate lower than 0.5 (ties excluded): `Nc1ncnc2[nH]c(-c3ccccc3)nc12`
**Result** not fulfilled

**Query** Determine whether this compound shows Growth Rate lower than 0.5 (ties excluded): `Fc1ccc(Cl)cc1-c1nc(Nc2ccncc2)c2nccnc2n1`
**Result** not fulfilled

**Query** Determine whether this compound shows Growth Rate lower than 0.5 (ties excluded): `COc1cc(F)ccc1-c1ncnc(Nc2cccc(C[S@](C)(=N)=O)c2)n1`
**Result** not fulfilled

**Query** Determine whether this compound shows Growth Rate lower than 0.5 (ties excluded): `CCN1CCN(Cc2ccc(C(=O)Nc3ccc(C)c(Oc4ccc5c(c4)CC(=O)N5)c3)cc2C(F)(F)F)CC1.Cl.Cl`
**Result** fulfilled

**Query** Determine whether this compound shows Growth Rate lower than 0.5 (ties excluded): `CC(C)(O)c1cn(-c2ccc(-c3cccc(S(C)(=O)=O)c3)cc2)c(C(C)(C)c2ccccc2Cl)n1`
**Result** fulfilled

**Query** Determine whether this compound shows Growth Rate lower than 0.5 (ties excluded): `Cc1cc(-c2nncc3c(C(C)(C)C)c(OCc4ncnn4C)nn23)no1`
**Result** fulfilled

**Query** Determine whether this compound shows Growth Rate lower than 0.5 (ties excluded): `NC1(c2ccc(-c3nc4c(O)ccnn4c3-c3ccccc3)cc2)CCC1`
**Result** fulfilled

**Query** Determine whether this compound shows Growth Rate lower than 0.5 (ties excluded): `CC(C)(C)c1ccc2c(c1)CC[C@H]2NC(=O)Nc1cccc2[nH]ncc12`
**Result** fulfilled

**Query** Determine whether this compound shows Growth Rate lower than 0.5 (ties excluded): CCc1cnn2c(NCc3ccc[n+]([O-])c3)cc(N3CCCCC3CCO)nc12 (stereo unspecified)
**Result** not fulfilled

**Query** Determine whether this compound shows Growth Rate lower than 0.5 (ties excluded): `COc1ccccc1-n1nc(C2CC(C)(C)OC(C)(C)C2)cc1-c1ccc(Cl)cc1`
**Result** fulfilled

**Query** Determine whether this compound shows Growth Rate lower than 0.5 (ties excluded): `CCOC(=O)c1c(/C(C#N)=C\N)c2ccc(Cl)c(Cl)c2n1C`
**Result** not fulfilled

**Query** Determine whether this compound shows Growth Rate lower than 0.5 (ties excluded): CCCCCCCCCCCCCC(=O)O[C@@H]1[C@@H](C)[C@@]2(O)[C@@H](C=C(CO)C[C@]3(O)C(=O)C(C)=C[C@@H]23)[C@@H]2C(C)(C)[C@]12OC(C)=O [PHORBOL MYRISTATE ACETATE]
**Result** fulfilled

meta.source: ChEMBL document CHEMBL5303304
